From: the supplement of paper PMC10567573

B1: EPB41L3 (parent)
chain: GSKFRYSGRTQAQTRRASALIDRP

Variants of: B1
Experiment: protein stability index of a GFP-peptide fusion (GPS, HEK-293T) (PSI 1-6); higher = more stable;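 also: lentivirally expressed fusions sorted by FACS into six bins by GFP to DsRed ratio, PSI derived from sequencing read proportions per bin multiplied by bin number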
Details: c terminus: a fixed tail appended
Give Satisfied when the value for protein stability index is at least 3. Give Not satisfied when it is less.

- GSKFRYSGRTQAETRRASALIDRP [Q13E]: Satisfied
- GSKFRYSGRTQAQTRRASYLIDRP [A19Y]: Not satisfied
- GSKFRYDGRTQAQTRRASALIDRP [S7D]: Satisfied
- GSKFRYSGRTQAQTRRASALADRP [I21A]: Satisfied
- GSKFRYSGRTQMQTRRASALIDRP [A12M]: Not satisfied
- GSKFRYYGRTQAQTRRASALIDRP [S7Y]: Not satisfied
- GSKFRYSGRHQAQTRRASALIDRP [T10H]: Satisfied
- GSKFRYSGRTQAQTRRASALIFRP [D22F]: Satisfied
- GSKFRYSGRTQSQTRRASALIDRP [A12S]: Satisfied
- GSKFRISGRTQAQTRRASALIDRP [Y6I]: Satisfied
- GSKFRYSGRTQAQTRRVSALIDRP [A17V]: Not satisfied
- GSKFRYSMRTQAQTRRASALIDRP [G8M]: Satisfied
- GSKFRYSGRTQAQTRLASALIDRP [R16L]: Satisfied
- GSKFRYSGRTSAQTRRASALIDRP [Q11S]: Not satisfied
- GSHFRYSGRTQAQTRRASALIDRP [K3H]: Not satisfied
- GSKFRYSGRMQAQTRRASALIDRP [T10M]: Not satisfied
- GSKFRYSGRTQAQTRRRSALIDRP [A17R]: Satisfied
- GSKFNYSGRTQAQTRRASALIDRP [R5N]: Satisfied
- GSKFRCSGRTQAQTRRASALIDRP [Y6C]: Satisfied
- GKKFRYSGRTQAQTRRASALIDRP [S2K]: Satisfied
- GSKFRYSGRTLAQTRRASALIDRP [Q11L]: Not satisfied
- GIKFRYSGRTQAQTRRASALIDRP [S2I]: Not satisfied
- FSKFRYSGRTQAQTRRASALIDRP [G1F]: Not satisfied
- GSKFRMSGRTQAQTRRASALIDRP [Y6M]: Satisfied
- GSKFRYSGWTQAQTRRASALIDRP [R9W]: Not satisfied
- GSKFRYSCRTQAQTRRASALIDRP [G8C]: Not satisfied
- GSKMRYSGRTQAQTRRASALIDRP [F4M]: Satisfied
- GSKFRYSGRTQRQTRRASALIDRP [A12R]: Satisfied
- GSKFRYSGRTQAQTRRASALIDRS [P24S]: Not satisfied
- GSKFRYSGRTQAQTRYASALIDRP [R16Y]: Not satisfied
- GSKFPYSGRTQAQTRRASALIDRP [R5P]: Satisfied
- GSKFRYSGRTQAQTRRASALIDYP [R23Y]: Not satisfied
- GSKFRYSGRTMAQTRRASALIDRP [Q11M]: Not satisfied
- GSKFRYSGRTQAQTRRADALIDRP [S18D]: Satisfied
- GSKFRYSGRTQAQTRRASALIARP [D22A]: Not satisfied
- GSKFRYWGRTQAQTRRASALIDRP [S7W]: Not satisfied
- GSKFRYSGRTFAQTRRASALIDRP [Q11F]: Not satisfied
- GSKFVYSGRTQAQTRRASALIDRP [R5V]: Satisfied
- GSKFRYSGRVQAQTRRASALIDRP [T10V]: Not satisfied
- GSFFRYSGRTQAQTRRASALIDRP [K3F]: Not satisfied
- GSKFRYSGPTQAQTRRASALIDRP [R9P]: Satisfied
- GSKFRYSGRTQAMTRRASALIDRP [Q13M]: Not satisfied
- GSKFRYSGRTQAQTGRASALIDRP [R15G]: Not satisfied
- GSKFRYSGRTQAQTRRASAGIDRP [L20G]: Satisfied
- GSKFRYSGRTQAQTRRANALIDRP [S18N]: Satisfied
- GSKFRYSGRTQAQTRRASRLIDRP [A19R]: Satisfied
- GSKFLYSGRTQAQTRRASALIDRP [R5L]: Not satisfied
- GSKFRYSGRTQAQTRRASALINRP [D22N]: Not satisfied
- GSKHRYSGRTQAQTRRASALIDRP [F4H]: Satisfied
- GSKFRYSGRTQAQTRRASALIDNP [R23N]: Not satisfied
- QSKFRYSGRTQAQTRRASALIDRP [G1Q]: Not satisfied
- GSKFFYSGRTQAQTRRASALIDRP [R5F]: Not satisfied
- GSKFRYSGRTQAQTRWASALIDRP [R16W]: Not satisfied
- GSKFRYSGRTQAQTRRESALIDRP [A17E]: Satisfied
- GSKFRYSGRTQANTRRASALIDRP [Q13N]: Satisfied
- GSKFRYSGRTQAQTRRAMALIDRP [S18M]: Not satisfied
- GSKFRYSGRTQAQTRRASVLIDRP [A19V]: Not satisfied
- GSKFRYSGRTQAQERRASALIDRP [T14E]: Satisfied
- GSKFRDSGRTQAQTRRASALIDRP [Y6D]: Satisfied
- GFKFRYSGRTQAQTRRASALIDRP [S2F]: Not satisfied
- GSKFRYSTRTQAQTRRASALIDRP [G8T]: Satisfied
- GSKFRYSGRTQASTRRASALIDRP [Q13S]: Satisfied
- GSKFRYSGRTQAQIRRASALIDRP [T14I]: Not satisfied
- GQKFRYSGRTQAQTRRASALIDRP [S2Q]: Not satisfied
- GSKFRYSGRTQAQTRHASALIDRP [R16H]: Satisfied
- GSKFRYSGRTQKQTRRASALIDRP [A12K]: Satisfied
- GSKFRTSGRTQAQTRRASALIDRP [Y6T]: Satisfied
- GSKFRWSGRTQAQTRRASALIDRP [Y6W]: Satisfied
- GSKFRYSGRTQAQTRRASALIDRK [P24K]: Satisfied
- GSKFRYSGRTQAQTRRASAAIDRP [L20A]: Satisfied
- GSKFRYSGRTQAQTRRASALIDQP [R23Q]: Satisfied
- GSKFRYSGRTQAQTRRASALIDRW [P24W]: Not satisfied
- GWKFRYSGRTQAQTRRASALIDRP [S2W]: Not satisfied
- GSKFRYSGRTQAQTIRASALIDRP [R15I]: Not satisfied
- GSKFRYSGRTQAQTRRASALIYRP [D22Y]: Not satisfied
- NSKFRYSGRTQAQTRRASALIDRP [G1N]: Satisfied
- GSKFRYSGRTQAQTRRKSALIDRP [A17K]: Satisfied
